Ref: the NIST ThermoML archive (doi:10.1021/je900407u)

# assay.method.text: isobaric coefficient of expansion
# assay.setup: 338.15 K; 5000 kPa; Liquid; Micro DSCII
readout.kind: isobaric coefficient of expansion

Completed entries (count: 4):
# compound, isobaric coefficient of expansion
records = [
    ("CCCC[n+]1ccn(C)c1.O=S(=O)([N-]S(=O)(=O)C(F)(F)F)C(F)(F)F", "0.000646 1/K"),
    ("CCCCn1cc[n+](C)c1.[F][Sb-]([F])([F])([F])([F])[F] [1-butyl-3-methylimidazolium hexafluoroantimonate]", "0.000607 1/K"),
    ("CCCCn1cc[n+](C)c1.COS(=O)(=O)[O-] [1-butyl-3-methylimidazolium methyl sulfate]", "0.00053 1/K"),
    ("CCCCn1cc[n+](C)c1.F[B-](F)(F)F [1-butyl-3-methylimidazolium tetrafluoroborate]", "0.000571 1/K"),
]

The record that follows has no isobaric coefficient of expansion shown yet.
The value of isobaric coefficient of expansion measured for the compound CCCCn1cc[n+](C)c1.O=S(=O)([O-])C(F)(F)F [1-butyl-3-methylimidazolium trifluoromethanesulfonate] turned out to be 0.000594 1/K

---

Task for the reader: assign each of the following compounds its reported isobaric coefficient of expansion.
# assay.method.text: isobaric coefficient of expansion
# assay.setup: 338.15 K; 25000 kPa; Liquid; Micro DSCII

# compound, isobaric coefficient of expansion
data = [
    ("CCCCn1cc[n+](C)c1.COS(=O)(=O)[O-] [1-butyl-3-methylimidazolium methyl sulfate]", "0.000508 1/K"),
    ("CCCCn1cc[n+](C)c1.F[B-](F)(F)F [1-butyl-3-methylimidazolium tetrafluoroborate]", "0.000547 1/K"),
    ("CCCCn1cc[n+](C)c1.[F][Sb-]([F])([F])([F])([F])[F] [1-butyl-3-methylimidazolium hexafluoroantimonate]", "0.000575 1/K"),
    ("CCCC[n+]1ccn(C)c1.O=S(=O)([N-]S(=O)(=O)C(F)(F)F)C(F)(F)F", "0.000605 1/K"),
]

// switching to the query compound
Note to self: isobaric coefficient of expansion recorded for CCCCn1cc[n+](C)c1.O=S(=O)([O-])C(F)(F)F [1-butyl-3-methylimidazolium trifluoromethanesulfonate] was 0.000562 1/K

---

Task for the reader: assign each of the following compounds its reported isobaric coefficient of expansion.
# assay.method.text: isobaric coefficient of expansion
# assay.setup: 328.15 K; 45000 kPa; Liquid; Micro DSCII

Some compounds with known isobaric coefficient of expansion results, for comparison:
# compound, isobaric coefficient of expansion
records = [
    ("CCCCn1cc[n+](C)c1.[F][Sb-]([F])([F])([F])([F])[F] [1-butyl-3-methylimidazolium hexafluoroantimonate]", "0.000553 1/K"),
    ("CCCCn1cc[n+](C)c1.O=S(=O)([O-])C(F)(F)F [1-butyl-3-methylimidazolium trifluoromethanesulfonate]", "0.000538 1/K"),
    ("CCCCn1cc[n+](C)c1.F[B-](F)(F)F [1-butyl-3-methylimidazolium tetrafluoroborate]", "0.000528 1/K"),
    ("CCCC[n+]1ccn(C)c1.O=S(=O)([N-]S(=O)(=O)C(F)(F)F)C(F)(F)F", "0.000578 1/K"),
]

// below: isobaric coefficient of expansion requested for another compound
Entry under test: CCCCn1cc[n+](C)c1.COS(=O)(=O)[O-] [1-butyl-3-methylimidazolium methyl sulfate] . Its isobaric coefficient of expansion was 0.000493 1/K
